For each of the compounds below, state its cell viability.
- Test system: NOMO1
- run-description: cell viability relative to DMSO control; higher = less cytotoxic
- test-parameters: RPMI 5 mM glucose + 10% dialyzed FBS; 48 h; 46.1 µM
Give bare numbers, in %.

See these solved cases before continuing.
structure-string: Cc1cc2c(C(C)C)c(O)c(O)c(C=O)c2c(O)c1-c1c(C)cc2c(C(C)C)c(O)c(O)c(C=O)c2c1O
tested-on: NOMO1
cell viability, %: 27.5

structure-string: O=C(Nc1ccc(OC(F)(F)F)cc1)c1sccc1NCc1ccnc2ccccc12
tested-on: NOMO1
cell viability, %: 36.1

structure-string: CCC[C@@H]1C[C@@H](C(=O)N[C@@H]([C@H]2O[C@H](SC)[C@H](O)[C@@H](O)[C@H]2O)[C@@H](C)O)N(C)C1.Cl
tested-on: NOMO1
cell viability, %: 98

Task: Specify reported cell viability for the compound shown: CO[C@H]1C[C@@H]2CC[C@@H](C)[C@@](O)(O2)C(=O)C(=O)N2CCCC[C@H]2C(=O)O[C@H]([C@H](C)C[C@@H]2CC[C@@H](OP(C)(C)=O)[C@H](OC)C2)CC(=O)[C@H](C)/C=C(\C)[C@@H](O)[C@@H](OC)C(=O)[C@H](C)C[C@H](C)/C=C/C=C/C=C/1C
Result: 120

###

- Test system: P12-Ichikawa
- run-description: cell viability relative to DMSO control; higher = less cytotoxic
- test-parameters: RPMI 5 mM glucose + 10% dialyzed FBS; 48 h; 0.569 µM
For each of the compounds below, state its cell viability.

Dear colleague, could you send me cell viability for each of the items below? Thanks.
1. O=C(NC1CCNCC1)c1n[nH]cc1NC(=O)c1c(Cl)cccc1Cl
2. C[C@H]1CN(C[C@@H](C)O1)CC(=O)NC2=CC=C3SC4=C(CC3=C2)C=CC=C4\C5=C\C(=O)\C=C(/O5)N6CCOCC6
3. CSC1=CC(=CC=C1)NC2=NC3=C(C=N2)/C=C(C(=O)N3C)/C4=C(Cl)C=CC=C4Cl

Result:
103%
128%
112%

###

- Tested on: SEM cells
- run-description: cell viability relative to DMSO control; higher = less cytotoxic
- test-parameters: HPLM + 10% dialyzed FBS; 48 h; 0.00702 µM
value-kind: cell viability
Note: a bare number is incomplete; add the unit.

Dear colleague, could you send me cell viability for each of the items below? Thanks.
1. FC(F)(F)c1ccc(Nc2nc3cc(Oc4ccnc(-c5ncc(C(F)(F)F)[nH]5)c4)ccc3[nH]2)cc1
2. Clc1cccc(-c2nnnn2Cc2cccnc2)c1Cl
3. CNC(=O)c1ccc(Nc2ncc(C(F)(F)F)c(NCc3nccnc3N(C)[S+](C)(=O)[O-])n2)cc1
4. Cc1cc(O)c2c3c4c(cc(O)c13)C(C)(C)C(=O)c1c(O)cc(O)c(c1-4)C2=O
5. Cc1[nH]c(/C=C2\C(=O)Nc3ccc([S+](=O)([O-])N(C)c4cccc(Cl)c4)cc32)c(C)c1C(=O)N1CCN(C)CC1
6. CN(C)Cc1ccc(-c2nc3cccc4c3n2CCNC4=O)cc1
7. COc1cc2ncnc(-n3nc(-c4ccccn4)nc3N)c2cc1OC

Result:
1. 112%
2. 67%
3. 124%
4. 108%
5. 113%
6. 93.5%
7. 96.7%

Dear colleague, could you send me cell viability for each of the items below? Thanks.
1. Fc1ccc(C(c2ccc(F)cc2)N2CCN(C/C=C/c3ccccc3)CC2)cc1
2. Cn1c2ccccc2c2c3c(c4c5ccccc5n(CCC#N)c4c21)CNC3=O
3. CN1C(=O)\C(=C/C(=C1/NC2=C(F)C=C(I)C=C2)C(=O)NOCCO)C
4. O=[N+]([O-])c1cn2c(n1)OC[C@@H](OCc1ccc(OC(F)(F)F)cc1)C2

Result:
1: 109%; 2: 142%; 3: 106%; 4: 108%

Dear colleague, could you send me cell viability for each of the items below? Thanks.
1. NC1CCC(N[C@@H]2C[C@H]2c2ccccc2)CC1 (stereo not given in full)
2. COCCOC(=O)C/1=C(C)/NC/2=C(C1C3=CC=CC(=C3)O)/C(=O)CC(C2)C4=C(OC)C=CC=C4 (stereo not given)

Result:
87.5%
106%

Dear colleague, could you send me cell viability for each of the items below? Thanks.
1. NC(=O)c1ccc(-c2nc(-c3ccc4c(c3)OCCO4)c(-c3ccccn3)[nH]2)cc1
2. Nc1ccccc1NC(=O)c1ccc(CNc2nccc(-c3cccnc3)n2)cc1
3. O=C(Nc1ccc(OC(F)(F)F)cc1)c1sccc1NCc1ccnc2ccccc12
4. O=C1Nc2ccccc2/C1=C1\Nc2ccccc2C1=O

Result:
1: 109%; 2: 117%; 3: 114%; 4: 85.5%
